Test system: Staphylococcus aureus (methicillin-resistant and sensitive clinical isolates; ATCC29213)
protocol_text: MIC by micro broth dilution (CLSI), Staphylococcus aureus
Assay type: cell-based
condition_parameters: Standard strain ATCC29213, read-out: MIC
Listed below: MIC values for each entry.
The reply should contain only the number, in µg/mL.

Some solved cases for reference:
compound="CNC(=O)N1CCN(c2ccnc3c(O)c([N+](=O)[O-])cc(Cl)c23)CC1 [Example 44]" val=32
compound="[2H]c1ccc2ccc([N+](=O)[O-])c(O)c2n1 [Example 116, 7-nitroquinolin-2-d-8-ol]" val=4
compound="O=[N+]([O-])c1ccc2c(Cl)c(C3CC3)cnc2c1O [Example 74]" val=0.5

Summary for this compound, O=[N+]([O-])c1cc(CN2CCOCC2)c2cccnc2c1O [Example 87] : MIC is 128

Summary for this compound, CN(C)c1ccnc2c(O)c([N+](=O)[O-])ccc12 [Example 17, 4-(Dimethylamino)-7-nitroquinolin-8-ol] : MIC is 128

Summary for this compound, CNc1c([N+](=O)[O-])c(O)c2ncccc2c1Cl [Example 7] : MIC is 16

Summary for this compound, Cl.O=[N+]([O-])c1cc(Cl)c2c(C(F)(F)F)ccnc2c1O [Example 73] : MIC is 1

Summary for this compound, CCOc1ccnc2c(O)c([N+](=O)[O-])cc(Cl)c12 [Example 61, 5-Chloro-4-ethoxy-7-nitroquinolin-8-ol] : MIC is 16

Summary for this compound, [2H]c1ccc2c(Cl)cc([N+](=O)[O-])c(O)c2n1 [Example 113, 5-chloro-7-nitroquinolin-2-d-8-ol] : MIC is 4

Summary for this compound, O=[N+]([O-])c1cc(Cl)c2c(OCCF)ccnc2c1O [Example 43] : MIC is 8

Summary for this compound, O=[N+]([O-])c1ccc2c(C3CCNCC3)ccnc2c1O [Example 105, 7-nitro-4-(piperidin-4-yl)quinolin-8-ol] : MIC is 128

Summary for this compound, O=[N+]([O-])c1cc(Cl)c2c(N3CCC(C(F)(F)F)CC3)ccnc2c1O [Example 39] : MIC is 4

Summary for this compound, O=[N+]([O-])c1ccc2c(F)ccnc2c1O [Example 27, 4-Fluoro-7-nitroquinolin-8-ol] : MIC is 64
